Overview of reported IC50 of inhibition of cell proliferation, LS174T (with moderate CEA expression) across a group of binders:
EXPERIMENTAL TARGET: T1, human CEA protein on the cell surface (human, UniProt P06731 35-685)
T1 sequence (looked up): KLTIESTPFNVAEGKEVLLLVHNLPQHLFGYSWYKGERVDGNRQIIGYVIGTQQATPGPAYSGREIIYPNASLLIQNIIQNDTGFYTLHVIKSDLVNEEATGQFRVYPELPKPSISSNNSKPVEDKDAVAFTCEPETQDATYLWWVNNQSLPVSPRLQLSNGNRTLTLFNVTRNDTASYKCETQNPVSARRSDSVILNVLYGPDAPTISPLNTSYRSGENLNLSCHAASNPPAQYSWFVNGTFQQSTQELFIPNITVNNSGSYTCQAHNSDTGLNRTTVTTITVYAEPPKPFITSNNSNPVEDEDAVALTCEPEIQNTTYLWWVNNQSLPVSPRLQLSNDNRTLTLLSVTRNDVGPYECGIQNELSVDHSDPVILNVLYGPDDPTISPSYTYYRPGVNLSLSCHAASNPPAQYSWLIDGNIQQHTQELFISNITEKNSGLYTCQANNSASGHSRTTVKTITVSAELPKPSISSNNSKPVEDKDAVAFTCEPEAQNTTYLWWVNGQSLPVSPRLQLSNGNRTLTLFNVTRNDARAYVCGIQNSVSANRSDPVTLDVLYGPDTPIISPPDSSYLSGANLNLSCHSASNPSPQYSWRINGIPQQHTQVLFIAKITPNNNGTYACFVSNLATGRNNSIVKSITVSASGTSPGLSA
ASSAY NOTES: cell-based or functional assay
Dear colleague, please return just the value in nM, with no unit written.

In the examples that follow, each entry is paired with its recorded IC50 of inhibition of cell proliferation, LS174T (with moderate CEA expression).
BINDER	ENDPOINT VALUE
Hu47-14-2-A (DAR 6.6) (antibody, human IgG1, kappa, V domains shown, see heavy chain; linker-toxin 2-A coupled to cysteine thiols of the TCEP-reduced antibody; mean DAR 6.6 per antibody) VH: EVQLVQSGSELKKPGASVKVSCKASGYTFTTYGMSWVKQAPGQGLKWMGWINTYSGVPTYASDFKGRFVFSLDTSVSTAYLQISSLKAEDTAVYYCARRGNYGRWDFDVWGQGTTVTVSS VL: EIVLTQSPDFQSVTPKEKVTITCSVSSTISSSNLHWYQQKPDQSPKPLIYGTSNLASGVPSRFSGSGSGTDYTLTINSLEAEDAATYYCQQWSIYPLTFGQGTKLEIKR	10.3
Hu63-13-2-A (DAR 6.29) (antibody, human IgG1, kappa, V domains shown, see heavy chain; linker-toxin 2-A coupled to cysteine thiols of the TCEP-reduced antibody; mean DAR 6.29 per antibody) VH: EVQLVQSGAEVKKPGASVKVSCKASGYTFTDFYMNWVRQAPGQGLEWMGDIFPKSGNTDYNRKFKDRVTMTRDTSTSTVYMELSSLRSEDTAVYYCARSGYGNYVFDYWGQGTLVTVSS VL: DIQMTQSPSSLSASVGDRVTITCRTSQDINIYLNWYQQKPGKAPKLLIYYRSGLLSGVPSRFSGSGSGTDFTLTISSLQPEDFATYYCQQGNTLPPTFGGGTKVEIKR	13.1
Hu103-32-2-A (DAR 6.94) (antibody, human IgG1, lambda, V domains shown, see heavy chain; linker-toxin 2-A coupled to cysteine thiols of the TCEP-reduced antibody; mean DAR 6.94 per antibody) VH: EVQLVQSGSELKKPGASVKVSCKASGYTFTTYGVIWVRQAPGQGLEWMGWINTYSGVPTYASDFKGRFVFSLDTSVSTAYLQISSLKAEDTAVYYCARKKTLTTVTPWFAYWGQGTLVTVSS VL: ELVLTQSPSASASLGASVKLTCTLSSQHSTYTIEWYQQQPEKGPRYVMELKKDGSHSTGEGIPDRFSGSSSGAERYLTISSLQSEDEADYYCGVGNTIKEQFVYVFGGGTKLTVLG	2.37
Hu103-32-2-A (DAR 4.8) (antibody, human IgG1, lambda, V domains shown, see heavy chain; linker-toxin 2-A coupled to cysteine thiols of the TCEP-reduced antibody; mean DAR 4.8 per antibody) VH: EVQLVQSGSELKKPGASVKVSCKASGYTFTTYGVIWVRQAPGQGLEWMGWINTYSGVPTYASDFKGRFVFSLDTSVSTAYLQISSLKAEDTAVYYCARKKTLTTVTPWFAYWGQGTLVTVSS VL: ELVLTQSPSASASLGASVKLTCTLSSQHSTYTIEWYQQQPEKGPRYVMELKKDGSHSTGEGIPDRFSGSSSGAERYLTISSLQSEDEADYYCGVGNTIKEQFVYVFGGGTKLTVLG	3.08
Hu67-14-2-A (DAR 6.41) (antibody, human IgG1, kappa, V domains shown, see heavy chain; linker-toxin 2-A coupled to cysteine thiols of the TCEP-reduced antibody; mean DAR 6.41 per antibody) VH: EVQLVQSGAEVKKPGESLKISCKGSGYSFTDYHMNWVKQMPGKGLEWMGDINPDIGGTSYNQNFKGKVTISVDKSISTAYLQWSSLKASDTAMYYCARWDFDSFANWGQGTLVTVSS VL: DIQMTQSPSSLSASVGDRVTITCRASESVSIIGTNLIHWYQQKPGKAPKLLIYHASNLETGVPSRFSGSGSGTDFTLTISSLQPEDFATYYCLQSRKIPYTFGGGTKVEIKR	9.24
Hu63-13-2-A (DAR 3.97) (antibody, human IgG1, kappa, V domains shown, see heavy chain; linker-toxin 2-A coupled to cysteine thiols of the TCEP-reduced antibody; mean DAR 3.97 per antibody) VH: EVQLVQSGAEVKKPGASVKVSCKASGYTFTDFYMNWVRQAPGQGLEWMGDIFPKSGNTDYNRKFKDRVTMTRDTSTSTVYMELSSLRSEDTAVYYCARSGYGNYVFDYWGQGTLVTVSS VL: DIQMTQSPSSLSASVGDRVTITCRTSQDINIYLNWYQQKPGKAPKLLIYYRSGLLSGVPSRFSGSGSGTDFTLTISSLQPEDFATYYCQQGNTLPPTFGGGTKVEIKR	19.8

Then there is this binder:
Data request: Would you mind telling me what IC50 of inhibition of cell proliferation, LS174T (with moderate CEA expression) value was observed for Hu67-14-2-A (DAR 4.28) (antibody, human IgG1, kappa, V domains shown, see heavy chain; linker-toxin 2-A coupled to cysteine thiols of the TCEP-reduced antibody; mean DAR 4.28 per antibody) VH: EVQLVQSGAEVKKPGESLKISCKGSGYSFTDYHMNWVKQMPGKGLEWMGDINPDIGGTSYNQNFKGKVTISVDKSISTAYLQWSSLKASDTAMYYCARWDFDSFANWGQGTLVTVSS VL: DIQMTQSPSSLSASVGDRVTITCRASESVSIIGTNLIHWYQQKPGKAPKLLIYHASNLETGVPSRFSGSGSGTDFTLTISSLQPEDFATYYCLQSRKIPYTFGGGTKVEIKR ?
Data returned: 15.6
